// Change in HR, 5 hr after dose, fourth day lookup, one value per entry
- Tested on: spontaneously hypertensive male rats, strain MHS
- measurementProtocol: Anti-hypertensive activity in the spontaneously hypertensive rat (MHS): blood pressure and heart rate at the tail
- Type: in vivo
- assayConditions: 5 mg/kg os, fourth day, 5 hr after dose
- Method: 1. Spontaneously Hypertensive Rat (MHS) Four spontaneously hypertensive male rats, strain MHS, weight 250 to 300 g for each group were used. The animals were treated for four consecutive days. […]
quantityMeasured: Change in HR, 5 hr after dose, fourth day (b/min)

compound="CN1C[C@H](CC(C#N)C(N)=O)C[C@@H]2c3cccc4[nH]c(Br)c(c34)C[C@H]21 (stereo partly drawn)" systemundertest="spontaneously hypertensive male rats, strain MHS" recordedvalue=-12
compound="CN1C[C@H](CC(C#N)C(=O)N2CCCC2)C[C@@H]2c3cccc4[nH]cc(c34)C[C@H]21 (stereo partly drawn)" systemundertest="spontaneously hypertensive male rats, strain MHS" recordedvalue=-8
compound="CN1C[C@H](CC(C#N)C(=O)NCc2ccccc2)C[C@@H]2c3cccc4[nH]cc(c34)C[C@H]21 (stereo partly drawn)" systemundertest="spontaneously hypertensive male rats, strain MHS" recordedvalue=-8
compound="CCNC(=O)C(C#N)C[C@@H]1C[C@@H]2c3cccc4[nH]cc(c34)C[C@H]2N(C)C1 (stereo partly drawn)" systemundertest="spontaneously hypertensive male rats, strain MHS" recordedvalue=-25
